# TESTED_ON: human AspH (His6-AspH315–758) (Homo sapiens, UniProt Q12797)
# Construct: N-Terminally His6-tagged human AspH315–758 (His6-AspH315–758) was produced in Escherichia coli BL21 (DE3) cells; made in house; host or cells: Escherichia coli BL21 (DE3), pET-28a(+) vector
# Sequence (Q12797 315-758): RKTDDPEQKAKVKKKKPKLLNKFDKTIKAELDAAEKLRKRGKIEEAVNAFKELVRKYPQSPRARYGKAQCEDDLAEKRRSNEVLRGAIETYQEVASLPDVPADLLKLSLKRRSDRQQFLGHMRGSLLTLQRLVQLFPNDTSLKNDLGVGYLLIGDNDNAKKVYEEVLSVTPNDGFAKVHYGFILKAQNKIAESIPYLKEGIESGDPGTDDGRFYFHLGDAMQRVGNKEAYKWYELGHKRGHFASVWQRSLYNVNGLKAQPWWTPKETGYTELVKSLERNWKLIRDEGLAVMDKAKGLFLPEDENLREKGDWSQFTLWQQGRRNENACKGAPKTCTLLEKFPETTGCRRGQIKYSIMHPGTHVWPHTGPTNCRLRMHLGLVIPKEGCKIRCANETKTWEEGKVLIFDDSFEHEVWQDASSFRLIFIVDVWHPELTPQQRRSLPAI
# TEST_NAME: SPE-MS AspH inhibition assay (hFX-CP101-119 substrate hydroxylation)
# Type: biochemical
# MEASUREMENT_PARAMETERS: AspH-inhibitor screening, Plate 1-duplicate, substrate conversion
Counter-ions that a name gives are not always drawn.
I'd appreciate it if you could supply Plate 1-duplicate (% conversion) values for the items below.
Answers are plain numbers, in %.

A selection of reference data follows.
C=CC(=O)Nc1cc(Nc2nccc(-c3cn(C)c4ccccc34)n2)c(OC)cc1N(C)CCN(C)C | 35.31
CCC(C)(C)C(=O)O[C@H]1C[C@@H](C)C=C2C=C[C@H](C)[C@H](CC[C@@H]3C[C@@H](O)CC(=O)O3)[C@H]21 | 60.02
Cl.NC(=O)c1cccc2cn(-c3ccc([C@@H]4CCCNC4)cc3)nc12 [MK-4827, HCl salt] | 47.22
Cn1c(=O)c(F)c(Nc2ccc(I)cc2F)c2c(=O)n(C[C@@H](O)CO)cnc21 | 63.07

Dear reader, for each entry below, please note its Plate 1-duplicate (% conversion).
1. Cn1cc(-c2[nH]c3cc(NC(=O)[C@H](N)C4CCCCC4)cc4c3c2C=NNC4=O)cn1
2. CC(=O)O[C@@]12CO[C@@H]1C[C@H](O)[C@@]1(C)C(=O)[C@H](O)C3=C(C)[C@@H](OC(=O)[C@H](O)[C@@H](NC(=O)OC(C)(C)C)c4ccccc4)C[C@@](O)([C@@H](OC(=O)c4ccccc4)[C@H]21)C3(C)C
3. CC1(COc2ccc3c(c2)ncn3-c2ccc3cccc(N4CCC(N)CC4)c3n2)COC1

## Output
1: 78.84; 2: 51.03; 3: 53.92

Dear reader, for each entry below, please note its Plate 1-duplicate (% conversion).
1. CN[C@@H](C)C(=O)N[C@H]1CN(C(=O)CC(C)C)CC[C@H]2CC[C@@H](C(=O)NC(c3ccccc3)c3ccccc3)N2C1=O
2. COc1ccc(S(=O)(=O)Nc2cccnc2Nc2ccc(O)cc2)cc1
3. Cl.NC(=O)Nc1cc(-c2cccc(F)c2)sc1C(=O)N[C@H]1CCCNC1 [AZD 7762 hydrochloride]
4. Clc1ccc(Nc2nnc(Cc3ccncc3)c3ccccc23)cc1
5. CC[C@@]1(O)C(=O)OCc2c1cc1n(c2=O)Cc2cc3c(CN(C)C)c(O)ccc3nc2-1 [Topotecan hydrochloride]
6. Cc1cccc(-c2nn3c(c2-c2ccnc4ccc(C(N)=O)cc24)CCC3)n1

## Output
[53.25, 47.77, 49.73, 48.73, 48.66, 49.63]

Dear reader, for each entry below, please note its Plate 1-duplicate (% conversion).
1. COc1cc([C@@H]2c3cc4c(cc3[C@@H](O[C@@H]3O[C@@H]5CO[C@@H](c6cccs6)O[C@H]5[C@H](O)[C@H]3O)[C@H]3COC(=O)[C@H]23)OCO4)cc(OC)c1O [Teniposide]
2. C/C=C1\NC(=O)[C@H]2CSSCC/C=C/[C@H](CC(=O)N[C@H](C(C)C)C(=O)N2)OC(=O)[C@H](C(C)C)NC1=O
3. CC(=O)OC[C@H]1O[C@@H](n2ccc(=O)[nH]c2=O)[C@H](OC(C)=O)[C@@H]1OC(C)=O [Uridine triacetate]
4. C=CC(=O)Nc1cc2c(Nc3ccc(F)c(Cl)c3)ncnc2cc1OCCCN1CCOCC1
5. Cn1cc(C2=C(c3cn(C4CCN(Cc5ccccn5)CC4)c4ccccc34)C(=O)NC2=O)c2ccccc21

## Output
[48.78, 37.41, 48.55, 79.80, 52.28]
